Reported LD50 at 336 h values for the following compounds.
Experiment: in vivo
Details: mouse, mice, oral, observed for 14 days
Description: Male JCL-ICR mice (non SPF mice) from 7 weeks of age were used. The compound under test was dissolved in 5% v/v ethanol containing 0.4% w/v Tween 80 (Tween is a registered trademark) and administered orally to the mice.
measured_parameter: LD50 at 336 h

INSERT INTO assay_data (compound, measured_parameter, reported_value) VALUES
  ('CCCC[C@H](C)C[C@H](O)/C=C/[C@H]1[C@H](O)CC(=O)[C@@H]1CC(=O)CCCCCO [Compound 5, 17S,20-dimethyl-6-oxo-PGE1 alcohol]', 'LD50 at 336 h', '> 10 mg/kg'),
  ('CCCC[C@H](C)C[C@H](O)/C=C/[C@@H]1[C@H]2CC(CCCCC(=O)OC)=N[C@H]2C[C@H]1O', 'LD50 at 336 h', '40 to 100 mg/kg'),
  ('CCCC[C@H](C)C[C@H](O)/C=C/[C@@H]1[C@H]2C[C@H](CCCCCO)O[C@H]2C[C@H]1O [Compound 11, 17S,20-dimethyl-6S-PGI1 alcohol]', 'LD50 at 336 h', '> 50 mg/kg'),
  ('CCCC[C@H](C)C[C@H](O)/C=C/[C@@H]1[C@H]2C[C@H](CCCCC(=O)CO)O[C@H]2C[C@H]1O', 'LD50 at 336 h', '> 50 mg/kg'),
  ('CCCC[C@H](C)C[C@H](O)/C=C/[C@@H]1[C@H]2C[C@H](CCCCC(=O)OC)O[C@H]2C[C@H]1O [Compound 6, 17S,20-dimethyl-6S-PGI1 methyl ester]', 'LD50 at 336 h', '> 50 mg/kg'),
  ('CCCC[C@H](C)C[C@H](O)CC[C@H]1[C@H](O)CC(=O)[C@@H]1CC(=O)CCCCC(=O)OC', 'LD50 at 336 h', '> 10 mg/kg');
